Measurement target: α-1A adrenoceptor (dog prostate) (Canis lupus, UniProt A0A8I3NK63)
Sequence (A0A8I3NK63 1-466): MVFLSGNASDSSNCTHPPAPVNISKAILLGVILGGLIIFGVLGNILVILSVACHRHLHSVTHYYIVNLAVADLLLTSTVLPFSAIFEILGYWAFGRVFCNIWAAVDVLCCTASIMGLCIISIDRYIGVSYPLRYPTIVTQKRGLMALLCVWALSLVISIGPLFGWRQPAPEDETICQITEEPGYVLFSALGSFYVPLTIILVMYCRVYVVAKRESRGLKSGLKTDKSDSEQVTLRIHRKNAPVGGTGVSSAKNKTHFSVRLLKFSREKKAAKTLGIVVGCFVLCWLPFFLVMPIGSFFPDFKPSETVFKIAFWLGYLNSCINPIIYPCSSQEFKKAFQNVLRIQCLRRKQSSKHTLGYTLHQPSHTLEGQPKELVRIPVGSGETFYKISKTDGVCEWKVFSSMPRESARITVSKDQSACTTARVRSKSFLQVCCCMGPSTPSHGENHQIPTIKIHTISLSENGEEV
Assay overview: Functional antagonism: phenylephrine (PE)-induced contraction of canine prostate strips
Format: cell-based
Run conditions: Table 2b; vs phenylephrine; Schild plot
Structures can show the parent of a compound that is named as a salt.
Endpoint: pA2 Dog Prostate [α-1A]

INSERT INTO assay_data (compound, endpoint, reported_value) VALUES
  ('COc1cccc2c1CC[C@H]1CN(CCn3c(=O)c4sc5ccccc5c4n(C)c3=O)C[C@@H]21 [Example 33, hydrochloride]', 'pA2 Dog Prostate [α-1A]', 6.56),
  ('COc1cccc2c1CC[C@H]1CN(CCn3c(=O)[nH]c4c(oc5cccnc54)c3=O)C[C@@H]21 [Example 77, hydrochloride]', 'pA2 Dog Prostate [α-1A]', 9.09),
  ('COc1cccc2c1CC[C@H]1CN(CCn3c(=O)[nH]c4c(sc5ccc([N+](=O)[O-])cc54)c3=O)C[C@@H]21 [Example 48, hydrochloride]', 'pA2 Dog Prostate [α-1A]', 8.32),
  ('COc1cccc2c1CC[C@H]1CN(CCn3c(=O)[nH]c4c(sc5cc(C#N)ccc54)c3=O)C[C@@H]21 [Example 42, hydrochloride]', 'pA2 Dog Prostate [α-1A]', 9.09),
  ('COc1cccc2c1CC[C@H]1CN(CCn3c(=O)[nH]c4c(sc5c(C#N)cccc54)c3=O)C[C@@H]21 [Example 55, hydrochloride]', 'pA2 Dog Prostate [α-1A]', 8.11),
  ('COc1cccc2c1CC[C@H]1CN(CCn3c(=O)[nH]c4c(sc5nc(-c6ccccc6)c(-c6ccccc6)nc54)c3=O)C[C@@H]21 [Example 100, hydrochloride]', 'pA2 Dog Prostate [α-1A]', 6.92),
  ('COc1cccc2c1CC[C@H]1CN(CCn3c(=O)[nH]c4c(sc5cccnc54)c3=O)C[C@@H]21 [Example 37, dihydrochloride]', 'pA2 Dog Prostate [α-1A]', 9.15),
  ('COc1cccc2c1CC[C@H]1CN(CCn3c(=O)c4sc5cccnc5c4n(C)c3=O)C[C@@H]21 [Example 61, dihydrochloride]', 'pA2 Dog Prostate [α-1A]', 9.5),
  ('COc1cccc2c1CC[C@H]1CN(CCn3c(C)nc4c(sc5ccccc54)c3=O)C[C@@H]21 (relative stereo) [Example 29, dihydrochloride]', 'pA2 Dog Prostate [α-1A]', 7.43),
  ('COc1cccc2c1CC[C@H]1CN(CCn3c(=O)[nH]c4c(sc5c(Cl)cccc54)c3=O)C[C@@H]21 [Example 56, hydrochloride]', 'pA2 Dog Prostate [α-1A]', 7.11),
  ('COc1cccc2c1CC[C@H]1CN(CCn3c(=O)[nH]c4c(sc5ncc(-c6ccccc6)nc54)c3=O)C[C@@H]21 [Example 99, hydrochloride]', 'pA2 Dog Prostate [α-1A]', 7.92),
  ('COc1cccc2c1CC[C@H]1CN(CCn3cnc4c(sc5ccccc54)c3=O)C[C@@H]21 (relative stereo) [Example 28, dihydrochloride]', 'pA2 Dog Prostate [α-1A]', 7.75),
  ('COc1cccc2c1CC[C@H]1CN(CCn3c(=O)[nH]c4sc5ccccc5c4c3=O)C[C@@H]21 (relative stereo) [Example 13, hydrochloride]', 'pA2 Dog Prostate [α-1A]', 7.68);

Reference source for all entries: patent US5597823A
